Protein kinase C alpha type (Rattus norvegicus, UniProt P05696): recorded Ki for assorted compounds
PROPERTY_MEASURED: Ki (nM)

[a] CCCCCCCCCCCCCC(=O)O[C@@H]1CC(=O)O[C@H]1CCO
[b] CCCCCCCCCCCCCC(=O)OC[C@@H]1CC(=O)O[C@H]1CO
Decide: a or b , by lowest recorded Ki. Indicate which entry you chose by stating its label.
a
(a: 880 nM, b: 3100 nM)
